Test system: PCSK9 gene
experimentalDetails: PCSK9 gRNA/SpCas9 editing in primary human hepatocytes (Tables 2, 4)
Format: cell-based
assayConditions: 2500 ng/RNA/mL; SpCas9 mRNA MS002 1:1 by weight
In the oligonucleotide strings, read from the 5' end, every base follows the letter of its sugar. An asterisk marks phosphorothioate; unmarked linkages are phosphodiester. Other units and linkages are bracketed, terminal groups are in braces. A string of capitals states the bases alone. m = 2'-O-methyl; r = 2'-OH (RNA)
measuredParameter: Human Primary Hepatocyte Editing % 2500 (%)
Quick note: give the figure in %, leave out the unit.

Study these solved cases before continuing.
- GA188: PCSK9 gRNA; protospacer TATTCATCCGCCCGGTACCG (SEQ ID NO: 182) (nucleic acid) guide: mU*mA*mU*rUrCrArUrCrCrGrCrCrCrGrGrUrArCrCrGrGrUrUrUrUrArGrArGrCrUrArGrArArArUrArGrCrArArGrUrUrArArArArUrArArGrGrCrUrArGrUrCrCrGrUrUrArUrCrArArCrUrUrGrArArArArArGrUrGrGrCrArCrCrGrArGrUrCrGrGrUrGrCrU*mU*mU*mU: 41.02
- GA167: PCSK9 gRNA; protospacer TCAGCTCCAGGCGGTCCTGG (SEQ ID NO: 161) (nucleic acid, sugars from the 5' end m3 r94 m3, linkages s3 o93 s3 (s phosphorothioate, o phosphodiester), T or U not given here) guide: UCAGCUCCAGGCGGUCCUGGGUUUUAGAGCUAGAAAUAGCAAGUUAAAAUAAGGCUAGUCCGUUAUCAACUUGAAAAAGUGGCACCGAGUCGGUGCUUUU: 53.71
- GA164: PCSK9 gRNA; protospacer GTCCTCGTCCTCCTGCGCAC (SEQ ID NO: 158) (nucleic acid, sugars from the 5' end m3 r94 m3, linkages s3 o93 s3 (s phosphorothioate, o phosphodiester), T or U not given here) guide: GUCCUCGUCCUCCUGCGCACGUUUUAGAGCUAGAAAUAGCAAGUUAAAAUAAGGCUAGUCCGUUAUCAACUUGAAAAAGUGGCACCGAGUCGGUGCUUUU: 25.77
- GA180: PCSK9 gRNA; protospacer GCGCACTGCCCGCCGCCTGC (SEQ ID NO: 174) (nucleic acid) guide: mG*mC*mG*rCrArCrUrGrCrCrCrGrCrCrGrCrCrUrGrCrGrUrUrUrUrArGrArGrCrUrArGrArArArUrArGrCrArArGrUrUrArArArArUrArArGrGrCrUrArGrUrCrCrGrUrUrArUrCrArArCrUrUrGrArArArArArGrUrGrGrCrArCrCrGrArGrUrCrGrGrUrGrCrU*mU*mU*mU: 17.16
- GA168: PCSK9 gRNA; protospacer CTTGGCGCAGCGGTGGAAGG (SEQ ID NO: 162) (nucleic acid, sugars from the 5' end m3 r94 m3, linkages s3 o93 s3 (s phosphorothioate, o phosphodiester), T or U not given here) guide: CUUGGCGCAGCGGUGGAAGGGUUUUAGAGCUAGAAAUAGCAAGUUAAAAUAAGGCUAGUCCGUUAUCAACUUGAAAAAGUGGCACCGAGUCGGUGCUUUU: 54.99

Switching to the query record.
Ask: Suppose we examine the molecule GA186: PCSK9 gRNA; protospacer CTCATCTTCACCAGGAAGCC (SEQ ID NO: 180) (nucleic acid) guide: mC*mU*mC*rArUrCrUrUrCrArCrCrArGrGrArArGrCrCrGrUrUrUrUrArGrArGrCrUrArGrArArArUrArGrCrArArGrUrUrArArArArUrArArGrGrCrUrArGrUrCrCrGrUrUrArUrCrArArCrUrUrGrArArArArArGrUrGrGrCrArCrCrGrArGrUrCrGrGrUrGrCrU*mU*mU*mU ; what Human Primary Hepatocyte Editing % 2500 value has been reported?
Reply: 12.01

Measured values drawn from patent US20250152746A1 for this set.
